# STUDY_SYSTEM: furin, P09958;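 note: purified furin at 1:10 enzyme:substrate in 50 mM HEPES pH 7.5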
# Sequence (P09958 whole entry): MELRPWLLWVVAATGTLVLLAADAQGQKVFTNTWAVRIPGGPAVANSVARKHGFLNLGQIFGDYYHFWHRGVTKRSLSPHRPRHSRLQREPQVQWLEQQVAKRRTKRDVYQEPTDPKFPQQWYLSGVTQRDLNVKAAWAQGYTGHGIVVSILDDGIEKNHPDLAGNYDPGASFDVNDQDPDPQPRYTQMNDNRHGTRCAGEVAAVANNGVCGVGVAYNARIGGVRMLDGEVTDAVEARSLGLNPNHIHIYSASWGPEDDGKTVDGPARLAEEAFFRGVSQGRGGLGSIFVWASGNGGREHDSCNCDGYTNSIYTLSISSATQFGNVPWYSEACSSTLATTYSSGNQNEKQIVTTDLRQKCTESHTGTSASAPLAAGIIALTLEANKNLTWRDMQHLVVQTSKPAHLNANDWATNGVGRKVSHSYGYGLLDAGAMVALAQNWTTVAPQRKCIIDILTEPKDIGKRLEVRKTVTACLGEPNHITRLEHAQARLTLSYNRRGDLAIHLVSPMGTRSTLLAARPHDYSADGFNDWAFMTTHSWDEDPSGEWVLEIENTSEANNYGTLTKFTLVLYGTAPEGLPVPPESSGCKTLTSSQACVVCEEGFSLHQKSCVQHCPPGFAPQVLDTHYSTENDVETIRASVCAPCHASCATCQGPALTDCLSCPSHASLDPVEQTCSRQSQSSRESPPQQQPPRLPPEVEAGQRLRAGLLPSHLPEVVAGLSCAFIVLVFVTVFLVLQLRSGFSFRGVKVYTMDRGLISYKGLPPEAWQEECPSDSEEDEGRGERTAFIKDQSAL
# PROCEDURE_SUMMARY: furin cleavage Z-score vs untreated control; higher = more cleavage, active = 3.5 or more, inactive = 1 or less, 8 variable residues between constant flanks
# CONDITION_PARAMETERS: 15 min
This is one part of the list. The true hit rate is not given.
MEASURED_METRIC: furin cleavage Z-score

{"columns": ["SEQUENCE_ENTRY", "MEASURED"],
 "data": [
  ["CATTPCSGKWAGNASASA [HC1914]", 1.19],
  ["CAMEECVQHLAGNASASA [HC23]", 1.67],
  ["CATTPCSAHLAGNASASA [HC2478]", "0.111 (inactive)"],
  ["CAVVFCSMSYAGNASASA [HC2027]", "0.607 (inactive)"]
]}

Value source: the supplement of paper PMC3545927
